- System: HepG2
- assayProcedure: Cytotoxicity against Homo sapiens (human) HepG2 cells assessed as cell surviving fraction at 10 uM after 48 hr followed by gamma-radiation at dose level of 8 Gy by SRB assay
- Type: functional
Here, each record is paired with measured Ratio data.
propertyLabel: Ratio

NS(=O)(=O)c1ccc(Nc2nc3c(s2)C(c2ccc([N+](=O)[O-])cc2)c2c(nc[nH]c2=O)O3)cc1 (stereo not given) ... 0.41
COc1ccc(C2c3sc(Nc4ccc(S(N)(=O)=O)cc4)nc3Oc3[nH]c(=S)n(-c4ccccc4)c(=N)c32)cc1OC (stereo not given) ... 0.4
N#CC1=C(NC(=O)CCC(=O)O)Oc2nc(Nc3ccc(S(N)(=O)=O)cc3)sc2C1c1ccc([N+](=O)[O-])cc1 (stereo not given) ... 0.36
NS(=O)(=O)c1ccc(NC2=NC(=O)CS2)cc1 ... 0.53
COc1ccc(C2c3sc(Nc4ccc(S(N)(=O)=O)cc4)nc3Oc3nc(C)[nH]c(=O)c32)cc1OC (stereo not given) ... 0.31

* * *

- Test system: HepG2
- assayProcedure: Cytotoxicity against Homo sapiens (human) HepG2 cells assessed as cell surviving fraction at 25 uM after 48 hr by SRB assay
- Type: functional
Here, each record is paired with measured Ratio data.
propertyLabel: Ratio

Nc1ncnc2c1C(c1ccc([N+](=O)[O-])cc1)c1sc(Nc3ccc(S(N)(=O)=O)cc3)nc1O2 (stereo not drawn) ... 0.605
Nc1nc(=O)[nH]c2c1C(c1ccc([N+](=O)[O-])cc1)c1sc(Nc3ccc(S(N)(=O)=O)cc3)nc1O2 (stereo not drawn) ... 0.487
N#CC1=C(NC(=O)CCC(=O)O)Oc2nc(Nc3ccc(S(N)(=O)=O)cc3)sc2C1c1ccc([N+](=O)[O-])cc1 (stereo not drawn) ... 0.382
N#CC1=C(N2C(=O)CCC2=O)Oc2nc(Nc3ccc(S(N)(=O)=O)cc3)sc2C1c1ccc([N+](=O)[O-])cc1 (stereo not drawn) ... 0.474
COc1ccc(C2c3sc(Nc4ccc(S(N)(=O)=O)cc4)nc3Oc3[nH]c(=S)n(-c4ccccc4)c(=N)c32)cc1OC (stereo not drawn) ... 0.434
COc1ccc(C2c3sc(Nc4ccc(S(N)(=O)=O)cc4)nc3Oc3nc(C)[nH]c(=O)c32)cc1OC (stereo not drawn) ... 0.477
COc1ccc(C2c3sc(Nc4ccc(S(N)(=O)=O)cc4)nc3Oc3nc[nH]c(=O)c32)cc1OC (stereo not drawn) ... 0.446
NS(=O)(=O)c1ccc(NC2=NC(=O)CS2)cc1 ... 0.501

* * *

- Tested on: HepG2
- assayProcedure: Cytotoxicity against Homo sapiens (human) HepG2 cells assessed as cell surviving fraction at 50 uM after 48 hr followed by gamma-radiation at dose level of 8 Gy by SRB assay
- Assay type: functional
propertyLabel: Ratio

COc1ccc(C2c3sc(Nc4ccc(S(N)(=O)=O)cc4)nc3Oc3nc(C)[nH]c(=O)c32)cc1OC (stereo not given) ... 0.1
NS(=O)(=O)c1ccc(NC2=NC(=O)CS2)cc1 ... 0.12
N#CC1=C(NC(=O)CCC(=O)O)Oc2nc(Nc3ccc(S(N)(=O)=O)cc3)sc2C1c1ccc([N+](=O)[O-])cc1 (stereo not given) ... 0.11
NS(=O)(=O)c1ccc(Nc2nc3c(s2)C(c2ccc([N+](=O)[O-])cc2)c2c(nc[nH]c2=O)O3)cc1 (stereo not given) ... 0.12
COc1ccc(C2c3sc(Nc4ccc(S(N)(=O)=O)cc4)nc3Oc3[nH]c(=S)n(-c4ccccc4)c(=N)c32)cc1OC (stereo not given) ... 0.12

* * *

- Tested on: HepG2
- assayProcedure: Cytotoxicity against Homo sapiens (human) HepG2 cells assessed as cell surviving fraction at 50 uM after 48 hr by SRB assay
- Format: functional
propertyLabel: Ratio

N#CC1=C(NC(=O)CCC(=O)O)Oc2nc(Nc3ccc(S(N)(=O)=O)cc3)sc2C1c1ccc([N+](=O)[O-])cc1 (stereo not drawn) ... 0.127
COc1cccc2c1C(=O)c1c(O)c3c(c(O)c1C2=O)C[C@@](O)(C(=O)CO)C[C@@H]3O[C@H]1C[C@H](N)[C@H](O)[C@H](C)O1 ... 0.122
Nc1nc(=O)[nH]c2c1C(c1ccc([N+](=O)[O-])cc1)c1sc(Nc3ccc(S(N)(=O)=O)cc3)nc1O2 (stereo not drawn) ... 0.244
COc1ccc(C2c3sc(Nc4ccc(S(N)(=O)=O)cc4)nc3Oc3[nH]c(=S)n(-c4ccccc4)c(=N)c32)cc1OC (stereo not drawn) ... 0.128
N#CC1=C(N)Oc2nc(Nc3ccc(S(N)(=O)=O)cc3)sc2C1c1ccc([N+](=O)[O-])cc1 (stereo not drawn) ... 0.376
NS(=O)(=O)c1ccc(NC2=NC(=O)CS2)cc1 ... 0.168
COc1ccc(C2c3sc(Nc4ccc(S(N)(=O)=O)cc4)nc3Oc3nc(C)[nH]c(=O)c32)cc1OC (stereo not drawn) ... 0.118
Cc1nc2c(c(=O)[nH]1)C(c1ccc([N+](=O)[O-])cc1)c1sc(Nc3ccc(S(N)(=O)=O)cc3)nc1O2 (stereo not drawn) ... 0.301
N#CC1=C(N2C(=O)CCC2=O)Oc2nc(Nc3ccc(S(N)(=O)=O)cc3)sc2C1c1ccc([N+](=O)[O-])cc1 (stereo not drawn) ... 0.342
N#CC1=C(N)Oc2nc(Nc3ccc(S(N)(=O)=O)cc3)sc2C1c1cccc(Br)c1 (stereo not drawn) ... 0.388
CC(=O)CC(=O)NC1=C(C#N)C(c2ccc([N+](=O)[O-])cc2)c2sc(Nc3ccc(S(N)(=O)=O)cc3)nc2O1 (stereo not drawn) ... 0.206
COc1ccc(C2c3sc(Nc4ccc(S(N)(=O)=O)cc4)nc3Oc3nc[nH]c(=O)c32)cc1OC (stereo not drawn) ... 0.164
NS(=O)(=O)c1ccc(Nc2nc3c(s2)C(c2ccc([N+](=O)[O-])cc2)c2c(nc[nH]c2=O)O3)cc1 (stereo not drawn) ... 0.168

* * *

Here, each record is paired with measured Ratio data.
- Test system: HepG2
- assayProcedure: Cytotoxicity against Homo sapiens (human) HepG2 cells assessed as cell surviving fraction at 50 uM after 48 hr by SRB assay
- Assay type: functional
propertyLabel: Ratio

Nc1nc(=S)[nH]c2c1C(c1ccc([N+](=O)[O-])cc1)c1sc(Nc3ccc(S(N)(=O)=O)cc3)nc1O2 (centres undefined) ... 0.284
COc1ccc(C2C(C#N)=C(N)Oc3nc(Nc4ccc(S(N)(=O)=O)cc4)sc32)cc1OC (centres undefined) ... 0.64
Nc1ncnc2c1C(c1ccc([N+](=O)[O-])cc1)c1sc(Nc3ccc(S(N)(=O)=O)cc3)nc1O2 (centres undefined) ... 0.287
N#CC1=C(N)Oc2nc(Nc3ccc(S(N)(=O)=O)cc3)sc2C1c1ccccc1Cl (centres undefined) ... 0.582

* * *

- Test system: HepG2
- assayProcedure: Cytotoxicity against Homo sapiens (human) HepG2 cells assessed as cell surviving fraction at 25 uM after 48 hr by SRB assay
- Assay type: functional
propertyLabel: Ratio

Cc1nc2c(c(=O)[nH]1)C(c1ccc([N+](=O)[O-])cc1)c1sc(Nc3ccc(S(N)(=O)=O)cc3)nc1O2 (centres undefined) ... 0.498
N#CC1=C(N)Oc2nc(Nc3ccc(S(N)(=O)=O)cc3)sc2C1c1ccccc1Cl (centres undefined) ... 0.861
NS(=O)(=O)c1ccc(Nc2nc3c(s2)C(c2ccc([N+](=O)[O-])cc2)c2c(nc[nH]c2=O)O3)cc1 (centres undefined) ... 0.498
COc1ccc(C2C(C#N)=C(N)Oc3nc(Nc4ccc(S(N)(=O)=O)cc4)sc32)cc1OC (centres undefined) ... 0.564
N#CC1=C(N)Oc2nc(Nc3ccc(S(N)(=O)=O)cc3)sc2C1c1ccc([N+](=O)[O-])cc1 (centres undefined) ... 0.767
N#CC1=C(N)Oc2nc(Nc3ccc(S(N)(=O)=O)cc3)sc2C1c1cccc(Br)c1 (centres undefined) ... 0.564
COc1cccc2c1C(=O)c1c(O)c3c(c(O)c1C2=O)C[C@@](O)(C(=O)CO)C[C@@H]3O[C@H]1C[C@H](N)[C@H](O)[C@H](C)O1 ... 0.479
Nc1nc(=S)[nH]c2c1C(c1ccc([N+](=O)[O-])cc1)c1sc(Nc3ccc(S(N)(=O)=O)cc3)nc1O2 (centres undefined) ... 0.432
CC(=O)CC(=O)NC1=C(C#N)C(c2ccc([N+](=O)[O-])cc2)c2sc(Nc3ccc(S(N)(=O)=O)cc3)nc2O1 (centres undefined) ... 0.456
